Values were extracted from ChEMBL document CHEMBL5506002.

Biological target: Ubiquitin carboxyl-terminal hydrolase 8 (Homo sapiens)
Sequence (P40818 whole entry): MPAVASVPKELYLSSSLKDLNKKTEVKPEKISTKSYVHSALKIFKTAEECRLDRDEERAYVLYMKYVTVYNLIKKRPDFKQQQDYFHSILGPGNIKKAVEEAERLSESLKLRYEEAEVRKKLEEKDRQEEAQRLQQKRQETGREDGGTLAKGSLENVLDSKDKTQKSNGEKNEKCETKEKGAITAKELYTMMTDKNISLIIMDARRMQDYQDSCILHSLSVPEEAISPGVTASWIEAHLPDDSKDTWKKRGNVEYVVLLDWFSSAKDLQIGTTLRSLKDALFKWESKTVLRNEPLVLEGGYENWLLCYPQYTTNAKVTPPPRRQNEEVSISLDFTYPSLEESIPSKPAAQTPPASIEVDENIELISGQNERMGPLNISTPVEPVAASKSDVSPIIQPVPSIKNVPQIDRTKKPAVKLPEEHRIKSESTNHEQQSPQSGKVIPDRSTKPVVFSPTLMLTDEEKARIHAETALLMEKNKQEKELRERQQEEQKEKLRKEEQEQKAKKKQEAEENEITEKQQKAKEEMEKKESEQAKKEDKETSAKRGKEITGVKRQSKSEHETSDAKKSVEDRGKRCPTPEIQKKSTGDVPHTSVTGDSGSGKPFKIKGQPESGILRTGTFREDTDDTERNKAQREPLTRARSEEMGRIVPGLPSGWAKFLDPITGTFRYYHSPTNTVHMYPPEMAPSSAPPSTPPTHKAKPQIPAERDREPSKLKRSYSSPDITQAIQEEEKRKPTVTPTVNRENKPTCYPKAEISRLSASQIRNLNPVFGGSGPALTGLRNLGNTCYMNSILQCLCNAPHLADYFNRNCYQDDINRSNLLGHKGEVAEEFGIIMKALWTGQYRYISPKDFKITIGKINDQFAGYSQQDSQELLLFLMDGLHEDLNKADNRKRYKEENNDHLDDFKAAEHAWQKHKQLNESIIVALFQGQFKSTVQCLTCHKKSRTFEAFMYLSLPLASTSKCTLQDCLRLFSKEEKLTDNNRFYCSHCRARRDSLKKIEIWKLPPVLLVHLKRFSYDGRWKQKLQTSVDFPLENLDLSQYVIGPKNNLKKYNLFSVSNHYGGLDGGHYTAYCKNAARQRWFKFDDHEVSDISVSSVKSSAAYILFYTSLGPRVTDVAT
Assay: Inhibition of USP8 (unknown origin) using Di-Ub IQF K48-02 as substrate preincubated for 30 mins followed by substrate addition by high-throughput assay
Measured property: IC50

I am curious: what IC50 value has been reported for CCCCS(=O)(=O)Cc1nc2c(nc1CS(=O)(=O)CCCC)C(=O)c1ccccc1C2=O ?
< 100 nM

* * *

test: in vitro; details: human, microsomes
Description: Stability in human microsomes assessed as compound remaining measured after 30 mins
Measured property: remaining at 0.5 h

For the compound shown here, Cc1ccc(S(=O)(=O)Nc2cc(C(F)(F)F)ccc2C(=O)Nc2nc(-c3ccccc3)cs2)cc1 , give the reported remaining at 0.5 h.
> 90%

* * *

assay: in vitro; conditions: mouse, plasma
Description: Stability in mouse plasma assessed as compound remaining measured after 30 mins
Measured property: remaining at 0.5 h

So what's the measured remaining at 0.5 h for this one? Cc1ccc(S(=O)(=O)Nc2cc(C(F)(F)F)ccc2C(=O)Nc2nc(-c3ccccc3)cs2)cc1
> 90%

* * *

biological target: Ubiquitin carboxyl-terminal hydrolase 2 (Homo sapiens, UniProt O75604); assay: Inhibition of USP2 (267 to 599 residues) (unknown origin) expressed in Escherichia coli BL21 (DE3) cells using ubiquitin-rhodamine-110 as substrate preincubated with compound for 30 mins followed by substrate addition measured after 30 mins by fluorometric assay
Sequence (O75604 whole entry, the tested form may be a part): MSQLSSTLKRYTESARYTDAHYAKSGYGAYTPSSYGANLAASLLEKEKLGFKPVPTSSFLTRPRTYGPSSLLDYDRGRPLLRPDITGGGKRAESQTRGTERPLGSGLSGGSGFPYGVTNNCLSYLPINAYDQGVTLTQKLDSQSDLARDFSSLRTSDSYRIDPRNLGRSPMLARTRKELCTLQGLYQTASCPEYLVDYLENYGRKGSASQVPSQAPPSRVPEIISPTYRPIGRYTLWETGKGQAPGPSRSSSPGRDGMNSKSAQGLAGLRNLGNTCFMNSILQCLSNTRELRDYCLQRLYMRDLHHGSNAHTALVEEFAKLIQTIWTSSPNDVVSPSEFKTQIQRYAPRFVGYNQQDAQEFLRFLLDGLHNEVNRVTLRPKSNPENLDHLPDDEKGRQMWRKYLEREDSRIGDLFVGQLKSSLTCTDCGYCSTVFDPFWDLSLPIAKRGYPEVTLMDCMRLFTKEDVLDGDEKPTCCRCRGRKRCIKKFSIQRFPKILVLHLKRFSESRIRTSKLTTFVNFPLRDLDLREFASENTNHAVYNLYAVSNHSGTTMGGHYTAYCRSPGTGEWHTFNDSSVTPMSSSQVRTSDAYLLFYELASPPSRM
Measured property: IC50 (µM)
Give bare numbers, in µM.

For Ubiquitin carboxyl-terminal hydrolase 2 (Homo sapiens, UniProt O75604), provide IC50 of Cc1ccc(S(=O)(=O)Nc2cc(C(F)(F)F)ccc2C(=O)Nc2nc(-c3ccccc3)cs2)cc1 please.
3.6

* * *

assay: in vitro; details: mouse, microsomes
Description: Stability in mouse microsomes assessed as compound remaining measured after 30 mins
Measured property: remaining at 0.5 h (%)
Answers are plain numbers, in %.

Value lookup for remaining at 0.5 h; key = Cc1ccc(S(=O)(=O)Nc2cc(C(F)(F)F)ccc2C(=O)Nc2nc(-c3ccccc3)cs2)cc1
72
